B1: Homeobox protein cut-like 2, residues 895 to 963; numbered along this chain, O14529 (parent)
chain: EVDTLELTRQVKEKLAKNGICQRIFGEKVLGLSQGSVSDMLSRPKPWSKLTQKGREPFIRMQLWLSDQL

Variants of: B1
assayProtocol: abundance fitness (aPCA) (normalised: wild type 0, dead -1); higher = more abundant; growth selection in yeast, the domain comes from the species named
testSettings: Homo sapiens
Using abundance fitness as the sorting value, the categories are low class: < -0.3; middle class: ≥ -0.3 and < -0.1; high class: ≥ -0.1

[Q] Hi, small favor: classify F58T by its abundance fitness when you get a moment.
[A] low class

[Q] State the class of the variant shown: K28W
[A] middle class

[Q] Into which category would you place K49S ?
[A] high class

[Q] Consider T4K . To which abundance fitness class does it belong?
[A] middle class

[Q] Hi there! Could you help me figure out the category for M61L please?
[A] middle class

[Q] Which class holds K14Q ?
[A] high class

[Q] Kindly state the category for this variant: R55M
[A] low class

[Q] Which band does D67I fall in?
[A] low class

[Q] Form field 'band' for I59L
[A] high class
